This section lists ΔTm readings for Casein kinase I isoform gamma-1 (Homo sapiens).

# Molecule, ΔTm / °C
rows = [
    ("CN[C@@H]1CC2O[C@@](C)([C@@H]1OC)n1c3ccccc3c3c4c(c5c6ccccc6n2c5c31)C(=O)NC4", 1.9),
    ("O=c1sn(Cc2ccccc2)c(=S)n1Cc1ccccc1", 0.5),
    ("CC(C)(C)n1nc(-c2ccc(Cl)cc2)c2c(N)ncnc21", 1),
    ("O=C1Cc2c([nH]c3ccc(Br)cc23)-c2ccccc2N1 [KENPAULLONE]", 0.3),
    ("Cc1[nH]c(/C=C2\\C(=O)Nc3ccc(S(=O)(=O)N(C)c4cccc(Cl)c4)cc32)c(C)c1C(=O)N1CCN(C)CC1", 0.6),
    ("N#C/C(=C1/Nc2ccccc2S1)c1ccnc(NCCc2cccnc2)n1", 3.7),
    ("COc1cc(/C=C/C(=O)CC(=O)/C=C/c2ccc(O)c(OC)c2)ccc1O [CURCUMIN]", 4.5),
    ("CN(C)CCCn1cc(C2=C(c3c[nH]c4ccccc34)C(=O)NC2=O)c2ccccc21 [GF-109203]", 1),
    ("Oc1cc(O)cc(/C=C/c2ccc(O)c(O)c2)c1 [PICEATANNOL]", 0),
    ("Brc1c(Br)c(Br)c2[nH]nnc2c1Br [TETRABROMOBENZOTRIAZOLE]", -0.4),
    ("CC(C)N(CCO)c1nc(Nc2cccc(Cl)c2)c2ncn(C(C)C)c2n1", 6.1),
    ("O=S(=O)(NCCNC/C=C/c1ccc(Br)cc1)c1cccc2cnccc12", 0.6),
    ("O=C1Nc2ccc(S(=O)(=O)O)cc2/C1=C1/Nc2ccccc2/C1=N\\O", 4),
    ("O=C1Nc2cc(Br)ccc2/C1=C1/Nc2ccccc2/C1=N\\O", 3.5),
    ("Cc1cc(Nc2nc(-c3ccccc3)nc3ccccc23)n[nH]1", 3.3),
    ("NS(=O)(=O)c1ccc(Nc2nc(OCC3CCCCC3)c3nc[nH]c3n2)cc1", 2.6),
    ("CCN(CC)CCNC(=O)c1c(C)[nH]c(/C=C2\\C(=O)Nc3ccc(Cl)cc32)c1C [SU-11652]", 4.3),
    ("NC1=N/C(=C2/CCNC(=O)c3[nH]ccc32)C(=O)N1 [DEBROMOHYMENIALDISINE]", 3.6),
    ("Cc1cc2ncc(-c3ccccc3)nc2cc1C", 0.7),
    ("CCOC(=O)c1cnc2oc3ccc(O)cc3c2c1-c1ccccc1", 1.2),
    ("CC(C)n1cnc2c(NCc3ccccc3)nc(NCCCO)nc21", 1.4),
]
